target: Beta-2 adrenergic receptor (Homo sapiens) (UniProt P07550); assay: beta2AR agonists driving receptor internalization, pilot screen, cell-based, FAP fluorogen, flow cytometry, validation set (AID 504459); details: Am2.2-beta2AR cells, FAP surface receptor flow cytometry; at 10 µM; stronger effect = higher value;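 note: agonist-driven loss of surface beta2AR via internalization measured by FAP dye flow cytometry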
Sequence (P07550 whole entry, looked up): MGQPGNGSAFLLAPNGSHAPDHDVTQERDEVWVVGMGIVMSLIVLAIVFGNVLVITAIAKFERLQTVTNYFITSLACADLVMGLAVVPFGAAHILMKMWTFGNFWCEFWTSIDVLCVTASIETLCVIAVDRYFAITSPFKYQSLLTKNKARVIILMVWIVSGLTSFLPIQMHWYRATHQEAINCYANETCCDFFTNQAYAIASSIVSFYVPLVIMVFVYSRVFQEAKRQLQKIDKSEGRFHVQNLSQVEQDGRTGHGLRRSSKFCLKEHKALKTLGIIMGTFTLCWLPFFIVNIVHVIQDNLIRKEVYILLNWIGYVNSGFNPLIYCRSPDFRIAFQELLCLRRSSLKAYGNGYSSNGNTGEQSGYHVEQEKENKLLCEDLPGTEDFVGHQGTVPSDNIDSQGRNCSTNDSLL
For each record, write down the corresponding response.
A number alone suffices; assume %.

Query: So what's the measured response for this one? `COc1ccc(/C=C\C(=O)c2c(O)ccc3c(C)cc(=O)oc23)cc1OC`
Result: 16.8

Query: So what's the measured response for this one? CCOC(=O)c1c(C)oc2cc(Br)c(OC(C)C(=O)OCC)cc12 (stereo unspecified)
Result: 4

Query: So what's the measured response for this one? `COc1ccc(CCCC(=O)O)c(C)c1`
Result: 1.17

Query: So what's the measured response for this one? `Cc1ccc2c(CN3CCN(Cc4ccc5c(c4)OCO5)CC3)cc(=O)oc2c1C`
Result: -2.16

Query: So what's the measured response for this one? `COc1ccc(S(=O)(=O)N2CCN(C(=O)COc3ccc4c(C)cc(=O)oc4c3)CC2)cc1`
Result: 11.5

Query: So what's the measured response for this one? `COc1ccccc1-c1c(C(F)(F)F)oc2cc(OC(=O)c3ccc([N+](=O)[O-])cc3)ccc2c1=O`
Result: -19.4

###

experiment: modulators of CIT2-GFP expression in yeast, confirmation, S. cerevisiae, GFP fusion, cherry picks, mother/daughter gates (AID 2274); settings: S. cerevisiae CIT2-GFP strain, flow cytometry, 3 h; measured here: mother cell gate; at 10 µM; stronger effect = higher value
For each record, write down the corresponding GFP response, % of DMSO.
A number alone suffices; assume %.

Query: So what's the measured GFP response, % of DMSO for this one? `COc1ccc([N+](=O)[O-])c(S(=O)(=O)c2ccc(Cl)cc2)n1`
Result: 78.8

Query: So what's the measured GFP response, % of DMSO for this one? `CCOC(=O)c1sc(NC(=O)c2ccco2)nc1-c1ccccc1`
Result: 99.3

Query: So what's the measured GFP response, % of DMSO for this one? `Cc1cccc(NC(=O)CCCN2C(=O)c3cccc4cccc(c34)C2=O)c1`
Result: 99.3

Query: So what's the measured GFP response, % of DMSO for this one? `CN(C)c1ccc(/C=C/c2ccc3ccccc3[n+]2C)cc1`
Result: 95.5

Query: So what's the measured GFP response, % of DMSO for this one? `CCOc1ccccc1NC(=O)c1nc(S(=O)(=O)Cc2cccc(C)c2)ncc1Cl`
Result: 98.7

Query: So what's the measured GFP response, % of DMSO for this one? `COc1ccccc1NC(=O)Cn1nnc(-c2ccccc2NC(=O)c2ccco2)n1`
Result: 99.8

Query: So what's the measured GFP response, % of DMSO for this one? `COc1ccc(C(=O)NC(=S)NNC(=O)c2cnccn2)cc1`
Result: 93.3

Query: So what's the measured GFP response, % of DMSO for this one? `O=S(=O)(c1ccc(Oc2ccccc2)cc1)N1CCOCC1`
Result: 94.4

Query: So what's the measured GFP response, % of DMSO for this one? `CCN(CC)c1ccc(/C=C2\SC(=O)N(C(C)C)C2=O)o1`
Result: 110

Query: So what's the measured GFP response, % of DMSO for this one? `O=C(CSc1ccc(Cl)cc1)Nc1cccc(-c2nc3ccccc3[nH]2)c1`
Result: 95.6

Query: So what's the measured GFP response, % of DMSO for this one? CN1CCN(C(c2ccc(C(F)(F)F)cc2)c2ccc3cccnc3c2O)CC1 (stereo not drawn)
Result: 94.4

Query: So what's the measured GFP response, % of DMSO for this one? `N/C(=N\OC(=O)c1cc(Br)ccc1Cl)c1ccccn1`
Result: 114

Query: So what's the measured GFP response, % of DMSO for this one? Cc1ccc(C2CCN(C(=S)Nc3cccc(Cl)c3)C2)cc1 (stereo not drawn)
Result: 95.6

Query: So what's the measured GFP response, % of DMSO for this one? `COc1ccc([N+](=O)[O-])c(S(=O)(=O)c2ccccc2)n1`
Result: 75.8

Query: So what's the measured GFP response, % of DMSO for this one? `O=C1c2cccc3cccc(c23)C(=O)N1c1nccs1`
Result: 131

Query: So what's the measured GFP response, % of DMSO for this one? `CCSc1nnc(NC(=O)c2nc(S(=O)(=O)Cc3ccc(F)cc3)ncc2Cl)s1`
Result: 113

Query: So what's the measured GFP response, % of DMSO for this one? O=C1C2C3C=CC(CO)(O3)C2C(=O)N1c1ccc(-c2ccccc2)cc1 (stereo not drawn)
Result: 82.1

Query: So what's the measured GFP response, % of DMSO for this one? `Cc1cccn2c(=O)c(/C=C(\C#N)C(=O)NCc3ccccc3)c(N3CCC(C(N)=O)CC3)nc12`
Result: 103

Query: So what's the measured GFP response, % of DMSO for this one? `CS/C(N)=N/N=C/c1ccc2c(c1)OCO2`
Result: 102

Query: So what's the measured GFP response, % of DMSO for this one? `Cc1[nH]c(-c2ccccn2)nc(=S)c1Cl`
Result: 91.5

Query: So what's the measured GFP response, % of DMSO for this one? CCOc1cc(N2CCOCC2)c(OCC)cc1NC(=O)C(NC(=O)c1ccco1)C(C)C (stereo not drawn)
Result: 108

Query: So what's the measured GFP response, % of DMSO for this one? `Cc1cccc(C(=O)Nc2ccc(O)cc2)c1`
Result: 104

Query: So what's the measured GFP response, % of DMSO for this one? `O=C1c2ccsc2SCCN1Cc1ccc(Cl)cc1Cl`
Result: 91.9
